System: barnyardgrass
Assay: Test Example 3: foliar treatment on upland field (Table 4)
Type: in vivo, Echinochloa crus-galli
Details: 125 g/ha active ingredient, examined 16 days after application, index 0-10
Would you mind telling me the reported Herbicidal effect Barnyardgrass of each entry?
One number for each entry.

compound="COC(=O)C(C)Oc1c(Br)cc(COc2cc(-n3c(=O)cc(C(F)(F)F)n(C)c3=O)c(F)cc2Cl)cc1OC (centres unmarked)" property_name="Herbicidal effect Barnyardgrass" value_reported=8

Go through the list and state Herbicidal effect Barnyardgrass for each entry.
1. CCC(Oc1cc(-n2c(=O)cc(C(F)(F)F)n(C)c2=O)c(F)cc1Cl)c1ccc(OC(C)C(=O)OC)cc1 (centres unmarked)
2. COC(=O)C(C)Oc1ccc(COc2cc(-n3c(=O)cc(C(F)(F)F)n(C)c3=O)c(F)cc2Cl)cc1OC (centres unmarked)
3. COC(=O)C(C)Oc1cc(COc2cc(-n3c(=O)cc(C(F)(F)F)n(C)c3=O)c(F)cc2Cl)ccc1C (centres unmarked)
4. COC(=O)C(C)Oc1cccc(COc2cc(-n3c(=O)cc(C(F)(F)F)n(C)c3=O)c(F)cc2Cl)c1 (centres unmarked)
5. COC(=O)C(C)Oc1c(OC)cc(COc2cc(-n3c(=O)cc(C(F)(F)F)n(C)c3=O)c(F)cc2Cl)cc1OC (centres unmarked)
6. COC(=O)C(C)Oc1cc(COc2cc(-n3c(=O)cc(C(F)(F)F)n(C)c3=O)c(F)cc2Cl)ccc1Cl (centres unmarked)

Reply:
10
10
10
10
9
10

Report Herbicidal effect Barnyardgrass for every entry below.
1. CCOC(=O)C(C)Oc1ccc(COc2cc(-n3c(=O)cc(C(F)(F)F)n(C)c3=O)c(F)cc2Cl)cc1Cl (centres unmarked)
2. COC(=O)C(C)Oc1ccc(C(Oc2cc(-n3c(=O)cc(C(F)(F)F)n(C)c3=O)c(F)cc2Cl)c2ccccc2)cc1 (centres unmarked)
3. COC(=O)C(C)Oc1ccc(Cl)c(COc2cc(-n3c(=O)cc(C(F)(F)F)n(C)c3=O)c(F)cc2Cl)c1Cl (centres unmarked)
4. COC(=O)C(C)Oc1ccc(C(C)Oc2cc(-n3c(=O)cc(C(F)(F)F)n(C)c3=O)c(F)cc2Cl)cc1 (centres unmarked)
5. COC(=O)COc1cccc(COc2cc(-n3c(=O)cc(C(F)(F)F)n(C)c3=O)c(F)cc2Cl)c1
6. CCOC(=O)C(C)Oc1cccc(COc2cc(-n3c(=O)cc(C(F)(F)F)n(C)c3=O)c(F)cc2Cl)c1 (centres unmarked)
7. COC(=O)C(C)Oc1ccc(COc2cc(-n3c(=O)cc(C(F)(F)F)n(C)c3=O)c(F)cc2Cl)cc1C (centres unmarked)

Reply:
10
8
10
10
8
10
10

---

Tested on: velvetleaf
Experiment: Test Example 3: foliar treatment on upland field (Table 4)
Format: in vivo, Abutilon theophrasti
Set-up: key: 0: little difference in the degree of germination or growth between the treated plants and the untreated plants at the time of examination; 10: the treated plants died completely or their germination or growth was completely inhibited
Settings: 125 g/ha active ingredient, examined 16 days after application, index 0-10
PROPERTY_NAME: Herbicidal effect Velvetleaf
One number for each entry.

Some compounds with known Herbicidal effect Velvetleaf results, for comparison:
compound="COC(=O)C(C)Oc1ccc(COc2cc(-n3c(=O)cc(C(F)(F)F)n(C)c3=O)c(F)cc2Cl)cc1 (stereo not drawn)" value_reported=10
compound="COC(=O)C(C)Oc1c(Br)cc(COc2cc(-n3c(=O)cc(C(F)(F)F)n(C)c3=O)c(F)cc2Cl)cc1OC (stereo not drawn)" value_reported=10
compound="COC(=O)C(C)Oc1ccc(C(C#N)Oc2cc(-n3c(=O)cc(C(F)(F)F)n(C)c3=O)c(F)cc2Cl)cc1 (stereo not drawn)" value_reported=10

// for each compound below, give its Herbicidal effect Velvetleaf
1. COC(=O)C(C)Oc1cc(COc2cc(-n3c(=O)cc(C(F)(F)F)n(C)c3=O)c(F)cc2Cl)ccc1OC (stereo not drawn)
2. COC(=O)C(C)Oc1c(OC)cc(COc2cc(-n3c(=O)cc(C(F)(F)F)n(C)c3=O)c(F)cc2Cl)cc1OC (stereo not drawn)
3. COC(=O)C(C)Oc1cc(COc2cc(-n3c(=O)cc(C(F)(F)F)n(C)c3=O)c(F)cc2Cl)ccc1Cl (stereo not drawn)

Reply:
[10, 10, 10]

Source: patent US6664214B1
